Each entry below lists one item and its recorded inhibition of SARS-CoV-2 cytopathic effect value.
- Tested on: Vero E6 infected with SARS-CoV-2
- assay.procedure: inhibition of SARS-CoV-2 cytopathic effect; higher = more antiviral protection, active = above 15
- condition.label: 1 nM; 48 h
The reply should be a number in %, with the unit left off.

Cc1cccc(OCC(O)CNC(C)(C)C)c1C (configuration not stated) ... -3.23
CSCC[C@H](NC(=O)[C@H](Cc1ccccc1)NC(=O)CNC(=O)CNC(=O)[C@@H](N)Cc1ccc(O)cc1)C(=O)O ... 0.74
C/C=C1\NC(=O)[C@H]2CSSCC/C=C/[C@H](CC(=O)N[C@H](C(C)C)C(=O)N2)OC(=O)[C@H](C(C)C)NC1=O ... -1.04
Cc1cc(C)cc(OCC2CNC(=O)O2)c1 (configuration not stated) ... -1.78
CN(C)CCCNC(=O)c1ccc(-c2cc(O)c3ncccc3c2)cc1 ... -1.74

Entry under test: N[C@@H](C(=O)O)c1ccc(C(=O)O)c(O)c1 (racemic) [4-carboxy-3-hydroxyphenylglycine-(RS)] . Its inhibition of SARS-CoV-2 cytopathic effect was -0.15

Entry under test: COc1cc(C(=O)NCCCCCC(=O)O)cc(OC)c1OC . Its inhibition of SARS-CoV-2 cytopathic effect was -6.75

###

- System: Vero E6 infected with SARS-CoV-2
- assay.procedure: inhibition of SARS-CoV-2 cytopathic effect; higher = more antiviral protection, active = above 15
- condition.label: 8.33 nM; 48 h
Each entry below lists one item and its recorded inhibition of SARS-CoV-2 cytopathic effect value.
The reply should be a number in %, with the unit left off.

Use the examples below as a reference point.
CCCN1CCC[C@@H]2Cc3nc(N)ncc3C[C@H]21 [quinelorane] ... -0.4
N#C/C(=C\c1ccc(O)c(O)c1)C(=O)NCCCc1ccccc1 ... -2.1
CCCC[C@@H](NC(=O)[C@@H](Cc1cn(C(=O)OC)c2ccccc12)NC(=O)[C@H](CC(C)(C)C)NC(=O)N1[C@H](C)CCC[C@@H]1C)C(=O)O ... 2.89
CCCN(CCC)C(=O)C(CCC(=O)O)NC(=O)c1ccccc1 (stereo not given) [proglumide] ... -2.46

The record that follows has no inhibition of SARS-CoV-2 cytopathic effect shown yet.
Entry under test: CC(C)(C)NC[C@H](O)COc1nsnc1N1CCOCC1 [timolol] . Its inhibition of SARS-CoV-2 cytopathic effect was 0.61

###

Each entry below lists one item and its recorded inhibition of SARS-CoV-2 cytopathic effect value.
- Test system: Vero E6 infected with SARS-CoV-2
- assay.procedure: inhibition of SARS-CoV-2 cytopathic effect; higher = more antiviral protection, active = above 15
- condition.label: 10000 nM; 48 h

O=C(O)CCc1ccc(NCc2cccc(Oc3ccccc3)c2)cc1 ... -0.27% (inactive)

Value sought: inhibition of SARS-CoV-2 cytopathic effect, system Vero E6 infected with SARS-CoV-2, item CN1CCC(=C2c3ccccc3CCn3c(C=O)cnc32)CC1 . Result: -2.28% (inactive)

Value sought: inhibition of SARS-CoV-2 cytopathic effect, system Vero E6 infected with SARS-CoV-2, item CC[C@@H](Nc1c(Nc2cccc(C(=O)N(C)C)c2O)c(=O)c1=O)c1ccc(C)o1 . Result: -2.11% (inactive)

Value sought: inhibition of SARS-CoV-2 cytopathic effect, system Vero E6 infected with SARS-CoV-2, item CCCCCCc1ccc(O)cc1O . Result: 3.14% (inactive)

Value sought: inhibition of SARS-CoV-2 cytopathic effect, system Vero E6 infected with SARS-CoV-2, item O=c1c(O)c(-c2ccc(O)cc2)oc2cc(O)cc(O)c12 . Result: 11.2% (inactive)

###

Each entry below lists one item and its recorded inhibition of SARS-CoV-2 cytopathic effect value.
- Tested on: Vero E6 infected with SARS-CoV-2
- assay.procedure: inhibition of SARS-CoV-2 cytopathic effect; higher = more antiviral protection, active = above 15
- condition.label: 1 nM; 48 h
The reply should be a number in %, with the unit left off.

Use the examples below as a reference point.
NCC(=O)CCC(=O)O [5-aminolevulinic-acid] ... 1.18
C#C[C@]1(O)CC[C@H]2[C@@H]3CCC4=CC(=O)CC[C@@H]4[C@H]3CC[C@@]21CC [norgestrel] ... -2
CC(CCc1ccccc1)NCC(O)c1ccc(O)c(C(N)=O)c1 (stereo not given) [labetalol] ... -0.33
CC(C)(Sc1ccc(CCN(CCCCC2CCCCC2)C(=O)NC2CCCCC2)cc1)C(=O)O ... -11.4

Entry under test: CCOc1ccc(Nc2nc(-c3c(C)nc4ccccn34)cs2)cc1 . Its inhibition of SARS-CoV-2 cytopathic effect was -1.73

###

- Test system: Vero E6 infected with SARS-CoV-2
- assay.procedure: inhibition of SARS-CoV-2 cytopathic effect; higher = more antiviral protection, active = above 15
- condition.label: 833.33 nM; 48 h
Where a name gives a salt, the structure may show the parent alone.
Each entry below lists one item and its recorded inhibition of SARS-CoV-2 cytopathic effect value.

Use the examples below as a reference point.
Fc1ccc2nc(CCC#Cc3ccccn3)cn2c1 ... 1.2% (inactive)
CC(=O)N(CC(O)CO)c1c(I)c(C(=O)NCC(O)CO)c(I)c(C(=O)NCC(O)CO)c1I (centres undefined) [iohexol] ... -0.74% (inactive)
N=c1ccn2c(n1)O[C@H]1[C@H](O)[C@@H](CO)O[C@H]12 [Cyclocytidine HCl] ... -0.83% (inactive)

Value sought: inhibition of SARS-CoV-2 cytopathic effect, system Vero E6 infected with SARS-CoV-2, item CC(C)C[C@@H](NC(=O)[C@H](Cc1ccccc1)NC(=O)CNC(=O)[C@@H](C)NC(=O)[C@@H](N)Cc1ccc(O)cc1)C(=O)O . Result: 2.13% (inactive)

###

Each entry below lists one item and its recorded inhibition of SARS-CoV-2 cytopathic effect value.
- Tested on: Vero E6 infected with SARS-CoV-2
- assay.procedure: inhibition of SARS-CoV-2 cytopathic effect; higher = more antiviral protection, active = above 15
- condition.label: 833.33 nM; 48 h
The reply should be a number in %, with the unit left off.

Use the examples below as a reference point.
COc1c2occc2c(OC)c2c(=O)cc(C)oc12 [khellin] ... -3.54
CN(C)CCCn1cc(C2=C(c3c[nH]c4ccccc34)C(=O)NC2=O)c2ccccc21 ... 0.57
CNCc1ccc(C)c(NC(=O)c2ccc(Nc3nc(-c4ccccc4)c4ccccc4n3)cc2)c1 ... -1.96
CC(C)N(CCC(=O)c1ccc2ccccc2c1)Cc1ccccc1 ... 3.16
CN[C@@H]1[C@@H](O[C@H]2O[C@H](CO)[C@@H](N)[C@H](O)[C@H]2O)O[C@H]2C[C@@H](N)[C@@H](O[C@H]3[C@H](O)[C@@H](O)[C@H](N)C[C@@H]3N)O[C@@H]2[C@@H]1O [apramycin] ... 0.37
Cc1ccccc1/N=N/c1ccc(NC(=O)c2ccnn2C)c(C)c1 ... 2.03

Value sought: inhibition of SARS-CoV-2 cytopathic effect, system Vero E6 infected with SARS-CoV-2, item CC1(C)CN(C(=O)c2ccc(-c3cccc4nc(NC(=O)C5CC5)nn34)cc2)C1 [solcitinib] . Result: 4.05

Value sought: inhibition of SARS-CoV-2 cytopathic effect, system Vero E6 infected with SARS-CoV-2, item NCC(O)(CS(=O)(=O)O)c1ccc(Cl)cc1 (stereo not drawn) [2-hydroxysaclofen] . Result: 3.7

Value sought: inhibition of SARS-CoV-2 cytopathic effect, system Vero E6 infected with SARS-CoV-2, item CCOc1ccc(/C=C2\NCCc3cc(OCC)c(OCC)cc32)cc1OCC [drotaverine] . Result: 2.62

Value sought: inhibition of SARS-CoV-2 cytopathic effect, system Vero E6 infected with SARS-CoV-2, item O=C(NCc1ccccc1)c1csc(Nc2ccncn2)n1 [thiazovivin] . Result: -2

Value sought: inhibition of SARS-CoV-2 cytopathic effect, system Vero E6 infected with SARS-CoV-2, item Cc1cc(Nc2cc(CN3CCOCC3)c3nc(C)c(Cc4ccc(Cl)cc4F)n3n2)n[nH]1 . Result: -6.68

Value sought: inhibition of SARS-CoV-2 cytopathic effect, system Vero E6 infected with SARS-CoV-2, item CC#CCn1c(N2CCC[C@@H](N)C2)nc2c1c(=O)n(Cc1nc(C)c3ccccc3n1)c(=O)n2C [linagliptin] . Result: -3.72

Value sought: inhibition of SARS-CoV-2 cytopathic effect, system Vero E6 infected with SARS-CoV-2, item Clc1ccc(C(OCCN2CCCCC2)c2ccccc2)cc1 (stereo not drawn) [cloperastine] . Result: -3.95

Value sought: inhibition of SARS-CoV-2 cytopathic effect, system Vero E6 infected with SARS-CoV-2, item CC1=CC(=C(c2ccc(N)cc2)c2ccc(N)cc2)C=CC1=N [basic-fuchsin] . Result: -0.79

Value sought: inhibition of SARS-CoV-2 cytopathic effect, system Vero E6 infected with SARS-CoV-2, item CCN(CC)CCCCNc1ncc2cc(-c3cc(OC)cc(OC)c3)c(NC(=O)NC(C)(C)C)nc2n1 . Result: -4.96

Value sought: inhibition of SARS-CoV-2 cytopathic effect, system Vero E6 infected with SARS-CoV-2, item CN1CCN(C(=O)c2nc3ccc(Cl)cc3[nH]2)CC1 . Result: 1.23

Value sought: inhibition of SARS-CoV-2 cytopathic effect, system Vero E6 infected with SARS-CoV-2, item COC[C@@H](NC(C)=O)C(=O)NCc1ccccc1 [Lacosamide] . Result: -10.4

Value sought: inhibition of SARS-CoV-2 cytopathic effect, system Vero E6 infected with SARS-CoV-2, item COC(=O)Nc1ccc(-c2nc(N3CCOCC3)c3cnn(C4CCN(Cc5cccnc5)CC4)c3n2)cc1 . Result: -4.82
